Cited source: patent US20110300138A1

Test target: T1, human TSH receptor (full length), coated on tubes (human, UniProt P16473 22-764)
T1 construct: TSHR coated tubes as described in WO2004/050708A2; Exact preparation on the tubes is not detailed here; also called thyroid stimulating hormone receptor
Assay explanation: competition with 125I-K1-18 IgG on TSHR coated tubes; 100 µg/mL, diluted in assay buffer
For each record, write down the corresponding Inhibition of binding (%).
One number for each entry, in %.

Inhibition of binding (%) for K1-18 IgG (antibody, V domains shown) VH: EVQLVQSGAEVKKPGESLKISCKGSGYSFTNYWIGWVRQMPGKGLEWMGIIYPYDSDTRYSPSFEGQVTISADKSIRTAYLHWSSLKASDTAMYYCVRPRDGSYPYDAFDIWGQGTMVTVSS VL: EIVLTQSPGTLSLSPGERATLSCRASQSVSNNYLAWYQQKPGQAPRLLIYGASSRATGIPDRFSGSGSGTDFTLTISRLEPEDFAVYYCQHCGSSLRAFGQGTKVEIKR is 94.5

Inhibition of binding (%) for K1-70 IgG (antibody, V domains shown) VH: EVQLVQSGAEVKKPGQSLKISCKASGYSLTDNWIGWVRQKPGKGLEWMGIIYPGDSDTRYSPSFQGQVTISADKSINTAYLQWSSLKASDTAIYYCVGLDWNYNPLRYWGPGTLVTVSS VL: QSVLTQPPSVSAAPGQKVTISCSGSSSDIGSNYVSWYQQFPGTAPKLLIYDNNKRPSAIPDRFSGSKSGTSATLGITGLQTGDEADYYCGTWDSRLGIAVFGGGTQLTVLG is 94.5

Inhibition of binding (%) for K1-18 Fab (Fab, V domains shown) VH: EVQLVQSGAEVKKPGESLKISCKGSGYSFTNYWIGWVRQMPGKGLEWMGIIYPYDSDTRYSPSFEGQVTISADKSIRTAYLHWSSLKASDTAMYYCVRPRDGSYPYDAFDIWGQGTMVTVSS VL: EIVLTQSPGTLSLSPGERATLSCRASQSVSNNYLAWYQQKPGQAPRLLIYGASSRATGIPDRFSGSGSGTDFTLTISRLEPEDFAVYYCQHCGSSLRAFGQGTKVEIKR is 86.2

Now consider the entry below.
Inhibition of binding (%) for K1-70 Fab (Fab, V domains shown) VH: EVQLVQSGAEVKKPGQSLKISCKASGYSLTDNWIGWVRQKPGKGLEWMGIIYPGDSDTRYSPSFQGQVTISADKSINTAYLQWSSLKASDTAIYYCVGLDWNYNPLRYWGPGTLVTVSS VL: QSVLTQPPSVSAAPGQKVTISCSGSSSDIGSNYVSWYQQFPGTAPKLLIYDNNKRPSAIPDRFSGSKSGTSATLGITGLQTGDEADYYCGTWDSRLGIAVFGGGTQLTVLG is 93.3
